# tgt: T1, his-tagged B7-H3 (UniProt Q5ZPR3-2 29-245, limits assumed)
# T1 construct: also called CD276; not shown: His tag
# T1 sequence (looked up): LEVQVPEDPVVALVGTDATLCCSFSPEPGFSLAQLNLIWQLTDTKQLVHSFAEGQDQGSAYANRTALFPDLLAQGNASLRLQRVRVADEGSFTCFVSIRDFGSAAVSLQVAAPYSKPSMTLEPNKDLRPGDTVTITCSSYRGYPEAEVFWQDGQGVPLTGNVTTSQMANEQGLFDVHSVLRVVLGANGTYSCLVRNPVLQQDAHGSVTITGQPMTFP
# method: SPR, Carterra LSA; binder captured by anti-human Fc, his-tagged B7-H3 injected
Reported koff values follow for various binders
Give the value in s⁻¹ but do not write s⁻¹ after it.

[
  {
    "binder": "40633p1.1.A11 scFv-Fc (scFv, V domains shown) VH: EVQLLESGGDLVQPGGSLRLSCAASGFTFNTYWMNWVRQAPGKGLEWVAGINSKGGVTYYADSVKGRFTISRDNSKNTLYLQMNSLRAEDTAVYYCADWNDYDIMDVWGQGTTVTVSS VL: QSVLTQPPSASGTPGQTITISCSGSSSNVGRRTVNWYQQLPGTAPKLLIYTNAQRPSGVPDRFSGSKSGTSASLAISGLQSEDEADYYCATWDDSLNAWVFGGGTKLTVL",
    "koff, s⁻¹": 0.01
  }
]

Fill blank: measured koff of the binder 40511p1.2.A12 scFv-Fc (scFv, V domains shown, Tested as scFv-Fc supernatant; also called 40511p1.2.Al2) VH: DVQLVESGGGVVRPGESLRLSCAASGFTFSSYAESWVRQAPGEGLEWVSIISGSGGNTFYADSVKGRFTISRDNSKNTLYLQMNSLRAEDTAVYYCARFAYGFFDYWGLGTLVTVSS VL: EIVLTQSPGTLSVSPGERATLSCRASQTVGSKLAWYQQKPGQPPSLLIYDASTRATGIPDRFSGSGSGTDFTLTISSLQSEDFAVYYCQQYRNWPPLTFGGGTKVEIK is ____. 0.03
